Assignment: determine reported Ki for the given compounds.
Biological target: recombinant bovine endothelial nitric oxide synthase (eNOS) (Bos taurus, UniProt P29473)
Construct: made in house; host or cells: E. coli
Experiment: Hemoglobin capture assay of nitric oxide formation, eNOS
Assay type: biochemical
Settings: Table 1
Numbers only, in µM.

Compound | Units Text | Ki
C=CCNC(=N)NCCC[C@H](N)C(=O)O [allyl, N^ω -allyl-L-arginine, reference compound] | µM | 3.1

In the following, a different compound is considered.
Form: compound = CCCNC(=N)NCCC[C@H](N)C(=O)O ; Ki = 8.5

###

Biological target: neuronal nitric oxide synthase (nNOS) from bovine brain (Bos taurus, UniProt A0A3Q1M6M2)
Sequence (A0A3Q1M6M2 entry or part of it): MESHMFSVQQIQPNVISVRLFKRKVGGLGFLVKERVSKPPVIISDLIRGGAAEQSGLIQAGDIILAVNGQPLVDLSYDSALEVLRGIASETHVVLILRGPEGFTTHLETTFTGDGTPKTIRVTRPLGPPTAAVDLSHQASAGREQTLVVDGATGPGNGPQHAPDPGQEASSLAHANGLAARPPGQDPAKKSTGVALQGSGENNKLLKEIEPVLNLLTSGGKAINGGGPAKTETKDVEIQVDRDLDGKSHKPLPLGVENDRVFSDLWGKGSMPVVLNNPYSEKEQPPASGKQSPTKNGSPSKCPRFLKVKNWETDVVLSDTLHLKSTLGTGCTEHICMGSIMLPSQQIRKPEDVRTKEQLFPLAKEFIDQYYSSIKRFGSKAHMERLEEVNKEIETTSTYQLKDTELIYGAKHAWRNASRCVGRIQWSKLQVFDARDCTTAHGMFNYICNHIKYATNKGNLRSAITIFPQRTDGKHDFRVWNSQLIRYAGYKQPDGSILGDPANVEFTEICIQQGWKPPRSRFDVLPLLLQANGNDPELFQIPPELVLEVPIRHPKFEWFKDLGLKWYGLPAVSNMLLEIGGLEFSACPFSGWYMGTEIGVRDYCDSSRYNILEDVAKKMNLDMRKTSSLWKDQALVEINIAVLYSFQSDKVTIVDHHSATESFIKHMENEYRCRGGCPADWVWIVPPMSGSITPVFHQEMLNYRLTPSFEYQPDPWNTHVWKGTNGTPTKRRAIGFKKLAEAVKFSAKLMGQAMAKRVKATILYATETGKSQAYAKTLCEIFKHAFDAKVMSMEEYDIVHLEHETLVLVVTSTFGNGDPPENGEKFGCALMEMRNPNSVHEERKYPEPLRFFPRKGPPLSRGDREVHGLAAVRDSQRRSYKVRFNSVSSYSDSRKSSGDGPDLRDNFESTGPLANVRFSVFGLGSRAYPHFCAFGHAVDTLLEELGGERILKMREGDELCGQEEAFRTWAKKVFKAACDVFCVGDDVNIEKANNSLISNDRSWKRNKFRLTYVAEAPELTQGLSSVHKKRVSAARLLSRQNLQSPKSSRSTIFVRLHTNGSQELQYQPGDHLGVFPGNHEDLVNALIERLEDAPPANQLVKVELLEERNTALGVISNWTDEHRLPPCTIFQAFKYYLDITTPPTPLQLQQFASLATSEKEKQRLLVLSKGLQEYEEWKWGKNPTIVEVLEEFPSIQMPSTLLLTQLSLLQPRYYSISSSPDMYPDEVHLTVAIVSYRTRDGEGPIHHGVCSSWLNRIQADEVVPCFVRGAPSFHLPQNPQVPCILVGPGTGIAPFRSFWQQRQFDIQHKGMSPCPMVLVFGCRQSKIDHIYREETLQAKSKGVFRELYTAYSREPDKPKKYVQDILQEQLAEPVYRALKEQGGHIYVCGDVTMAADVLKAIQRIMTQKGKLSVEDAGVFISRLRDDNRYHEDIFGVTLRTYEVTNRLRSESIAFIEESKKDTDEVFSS
Test: Hemoglobin capture assay of nitric oxide formation, nNOS
Conditions: Table 2 dipeptides; nNOS over eNOS
Peptide text beside a SMILES is read from it.
Assay Metric: nNOS/eNOS selectivity
Numbers only.

Compound | Reading
COC(=O)[C@@H](CCCNC(=N)N[N+](=O)[O-])NC(=O)[C@@H](N)Cc1ccccc1 [compound 10, L-Phe-D-Arg^NO2 -OMe] (HELM PEPTIDE1{F.[N=C(NCCC[C@@H](N[*:1])C(=O)[*:2])N[N+](=O)[O-]].[CO[*:1]]}$$$$V2.0) | 1.7
N=C(NCCC[C@@H](NC(=O)[C@H](N)Cc1ccccc1)C(=O)O)N[N+](=O)[O-] [compound 13, D-Phe-D-Arg^NO2] (HELM PEPTIDE1{[dF].[N=C(NCCC[C@@H](N[*:1])C(=O)O)N[N+](=O)[O-]]}$$$$V2.0) | 5.3

In the following, a different compound is considered.
Record N=C(NCCC[C@H](N)C(=O)N[C@@H](Cc1ccccc1)C(=O)OCc1ccccc1)N[N+](=O)[O-] has neuronal nitric oxide synthase (nNOS) from bovine brain (Bos taurus, UniProt A0A3Q1M6M2) nNOS/eNOS selectivity equal to 2.3

###

Assignment: determine reported iNOS/eNOS selectivity for the given compounds.
Target: recombinant murine macrophage nitric oxide synthase (iNOS) (Mus musculus, UniProt P29477)
Test: Hemoglobin capture assay of nitric oxide formation, iNOS
Conditions: Table 2 dipeptides
Peptide text beside a SMILES is read from it.
Numbers only.

Worked examples follow.
Compound | iNOS/eNOS selectivity
N=C(NCCC[C@H](N)C(=O)N[C@@H](Cc1ccccc1)C(=O)OCc1ccccc1)N[N+](=O)[O-] [compound 5, L-Arg^NO2 -L-Phe-OBn] | 6.9
COC(=O)[C@@H](CCCN=C(N)N[N+](=O)[O-])NC(=O)[C@H](N)Cc1ccccc1 [compound 12, D-Phe-D-Arg^NO2 -OMe] (HELM PEPTIDE1{[dF].[N=C(NCCC[C@@H](N[*:1])C(=O)[*:2])N[N+](=O)[O-]].[CO[*:1]]}$$$$V2.0) | 0.0014

In the following, a different compound is considered.
Form: compound = N=C(NCCC[C@@H](NC(=O)[C@H](N)Cc1ccccc1)C(=O)O)N[N+](=O)[O-] [compound 13, D-Phe-D-Arg^NO2] (HELM PEPTIDE1{[dF].[N=C(NCCC[C@@H](N[*:1])C(=O)O)N[N+](=O)[O-]]}$$$$V2.0) ; iNOS/eNOS selectivity = 0.0066

###

Biological target: recombinant murine macrophage nitric oxide synthase (iNOS) (Mus musculus, UniProt P29477)
Assay: Hemoglobin capture assay of nitric oxide formation, iNOS
Conditions: read-out: Ki iNOS; Table 2, Dixon plots; ^a = uncompetitive inhibition
Peptide text beside a SMILES is read from it.
Assay Metric: Ki (mM)
Numbers only, in mM.

Worked examples follow.
Compound | Reading
N=C(NCCC[C@H](N)C(=O)N[C@@H](Cc1ccccc1)C(=O)O)N[N+](=O)[O-] | 0.16
COC(=O)[C@@H](Cc1ccccc1)NC(=O)[C@H](N)CCCNC(=N)N[N+](=O)[O-] | 6.5
N=C(NCCC[C@@H](NC(=O)[C@H](N)Cc1ccccc1)C(=O)O)N[N+](=O)[O-] [compound 13, D-Phe-D-Arg^NO2] (HELM PEPTIDE1{[dF].[N=C(NCCC[C@@H](N[*:1])C(=O)O)N[N+](=O)[O-]]}$$$$V2.0) | 13.6

In the following, a different compound is considered.
Form: compound = COC(=O)[C@H](Cc1ccccc1)NC(=O)[C@@H](N)CCCNC(=N)N[N+](=O)[O-] ; Ki = 0.045
